Details: in acetone, 298.16 K
reportedMetric: solubility (mole fraction)
Lab note: record just the number, no unit beside it.

// query Returns the measured solubility (mole fraction) for the input compound. Input: O=P1(Oc2ccccc2)OCC2(CO1)COP(=O)(Oc1ccccc1)OC2 (stereo unspecified)
// result 0.00275

* * *

Conditions: in ethyl acetate, 318.18 K
reportedMetric: solubility (mole fraction)

// query Returns the measured solubility (mole fraction) for the input molecule. Input: O=P1(O)OCC2(CO1)COP(=O)(O)OC2 (stereo unspecified)
// result 0.00177

* * *

Details: in ethanol, 323.16 K
reportedMetric: solubility (mole fraction)
Lab note: record just the number, no unit beside it.

// query Returns the measured solubility (mole fraction) for the input molecule. Input: COc1ccc(P(c2ccc(OC)cc2)c2ccc(OC)cc2)cc1
// result 0.00241

Now take the following molecule into account.
// query Returns the measured solubility (mole fraction) for the input molecule. Input: O=P1(Oc2ccccc2)OCC2(CO1)COP(=O)(Oc1ccccc1)OC2 (configuration not stated)
// result 0.00288

* * *

Details: in 2-ethoxyethanol, 333.17 K
reportedMetric: solubility (mole fraction)

// query Returns the measured solubility (mole fraction) for the input compound. Input: COc1ccc(P(=O)(c2ccc(OC)cc2)c2ccc(OC)cc2)cc1
// result 0.033

* * *

Conditions: in acetonitrile, 303.26 K
reportedMetric: solubility (mole fraction)
Lab note: record just the number, no unit beside it.

// query Returns the measured solubility (mole fraction) for the input compound. Input: O=P1(Oc2ccccc2)OCC2(CO1)COP(=O)(Oc1ccccc1)OC2 (stereo unspecified)
// result 0.00223

* * *

In this section, each of the compounds is paired with its reported solubility (mole fraction).
Conditions: in acetone, 308.14 K

// query Returns the measured solubility (mole fraction) for the input compound. Input: O=P(O)(CO)c1ccccc1
// result 0.0023

Now take the following compound into account.
// query Returns the measured solubility (mole fraction) for the input compound. Input: O=C(O)CCP(=O)(O)c1ccccc1
// result 0.00153

* * *

Conditions: in acetonitrile, 323.36 K
reportedMetric: solubility (mole fraction)
Lab note: record just the number, no unit beside it.

// query Returns the measured solubility (mole fraction) for the input molecule. Input: O=P1(Oc2ccccc2)OCC2(CO1)COP(=O)(Oc1ccccc1)OC2 (stereo unspecified)
// result 0.00438

* * *

Details: in diethyl ether, 299.26 K
reportedMetric: solubility (mole fraction)

// query Returns the measured solubility (mole fraction) for the input compound. Input: O=P1(Oc2ccccc2)OCC2(CO1)COP(=O)(Oc1ccccc1)OC2 (stereo unspecified)
// result 0.00234

* * *

In this section, each of the compounds is paired with its reported solubility (mole fraction).
Conditions: in chloroform, 298.17 K

// query Returns the measured solubility (mole fraction) for the input compound. Input: O=C(O)CCP(=O)(O)c1ccccc1
// result 0.00033

// query Returns the measured solubility (mole fraction) for the input compound. Input: O=P1(Oc2ccccc2)OCC2(CO1)COP(=O)(Oc1ccccc1)OC2 (stereo not drawn)
// result 0.00319

// query Returns the measured solubility (mole fraction) for the input compound. Input: O=P1(O)OCC2(CO1)COP(=O)(O)OC2 (stereo not drawn)
// result 0.00054

* * *

Settings: in 2-ethoxyethanol, 353.16 K
reportedMetric: solubility (mole fraction)
Lab note: record just the number, no unit beside it.

// query Returns the measured solubility (mole fraction) for the input molecule. Input: O=P1(Oc2ccccc2)OCC2(CO1)COP(=O)(Oc1ccccc1)OC2 (stereo unspecified)
// result 0.0215
